# test target: UniProtKB Q9BQI3
# Sequence (Q9BQI3 whole entry, looked up): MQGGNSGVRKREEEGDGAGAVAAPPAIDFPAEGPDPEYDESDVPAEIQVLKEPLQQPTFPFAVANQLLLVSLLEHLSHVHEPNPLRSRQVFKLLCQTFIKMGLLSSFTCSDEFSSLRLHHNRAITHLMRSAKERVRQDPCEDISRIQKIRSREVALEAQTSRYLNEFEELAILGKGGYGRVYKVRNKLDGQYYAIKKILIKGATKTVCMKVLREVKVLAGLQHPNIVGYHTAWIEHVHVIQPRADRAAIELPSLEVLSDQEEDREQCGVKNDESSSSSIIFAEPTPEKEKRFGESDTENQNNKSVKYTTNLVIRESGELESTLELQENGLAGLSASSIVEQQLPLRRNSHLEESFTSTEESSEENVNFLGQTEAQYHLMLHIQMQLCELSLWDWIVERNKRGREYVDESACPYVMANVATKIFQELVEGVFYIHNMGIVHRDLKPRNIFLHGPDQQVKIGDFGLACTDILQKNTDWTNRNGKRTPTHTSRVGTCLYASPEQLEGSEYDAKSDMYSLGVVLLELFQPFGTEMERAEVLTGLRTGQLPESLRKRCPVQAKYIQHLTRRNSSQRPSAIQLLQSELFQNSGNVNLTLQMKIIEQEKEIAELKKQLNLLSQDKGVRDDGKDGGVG
# test name: KINOMEscan competition binding
# condition info: compound 10.0 µM
endpoint label: kinase still bound, per cent of control (%)
Give just the numeric value; % need not be written.

# input Requested read-out: kinase still bound, per cent of control. Entry: COc1ccc(N(C(=O)Oc2c(C)cccc2C)c2ccnc(Nc3ccc(N4CCN(C)CC4)cc3)n2)c(OC)c1
# output 100

# input Requested read-out: kinase still bound, per cent of control. Entry: N#CCNC(=O)c1ccc(-c2ccnc(Nc3ccc(N4CCOCC4)cc3)n2)cc1
# output 100

# input Requested read-out: kinase still bound, per cent of control. Entry: O=C1NC(=O)/C(=C/c2ccc3nccc(-c4ccncc4)c3c2)S1
# output 82

# input Requested read-out: kinase still bound, per cent of control. Entry: C=CC(=O)Nc1cc(-n2c(=O)ccc3cnc4ccc(-c5cn[nH]c5)cc4c32)ccc1C
# output 100

---

# test target: MERTK (human)
# test name: KINOMEscan competition binding
# condition info: compound 10.0 µM
endpoint label: kinase still bound, per cent of control (%)
Give just the numeric value; % need not be written.

# input Requested read-out: kinase still bound, per cent of control. Entry: COCC(=O)NC/C=C/c1ccc2ncnc(Nc3ccc(Oc4ccc(C)nc4)c(C)c3)c2c1
# output 97

# input Requested read-out: kinase still bound, per cent of control. Entry: C=CC(=O)Nc1cc(-n2c(=O)ccc3cnc4ccc(-c5cn[nH]c5)cc4c32)ccc1C
# output 100

# input Requested read-out: kinase still bound, per cent of control. Entry: CN(C)C/C=C/C(=O)Nc1ccc(C(=O)Nc2cccc(Nc3nccc(-c4cccnc4)n3)c2)cc1
# output 100

# input Requested read-out: kinase still bound, per cent of control. Entry: C[C@@H](Oc1cc(-c2cnn(C3CCNCC3)c2)cnc1N)c1c(Cl)ccc(F)c1Cl
# output 2.1

# input Requested read-out: kinase still bound, per cent of control. Entry: Cc1n[nH]c2ccc(-c3cncc(OC[C@@H](N)Cc4c[nH]c5ccccc45)c3)cc12
# output 33

# input Requested read-out: kinase still bound, per cent of control. Entry: N#CCNC(=O)c1ccc(-c2ccnc(Nc3ccc(N4CCOCC4)cc3)n2)cc1
# output 100

# input Requested read-out: kinase still bound, per cent of control. Entry: CS(=O)(=O)N1CCN(Cc2cc3nc(-c4cccc5[nH]ncc45)nc(N4CCOCC4)c3s2)CC1
# output 100

# input Requested read-out: kinase still bound, per cent of control. Entry: O=c1cc(N2CCOCC2)oc2c(-c3cccc4c3sc3ccccc34)cccc12
# output 100

# input Requested read-out: kinase still bound, per cent of control. Entry: C=CC(=O)Nc1ccc(CN(C(=O)Nc2c(Cl)c(OC)cc(OC)c2Cl)c2cc(Nc3ccc(N4CCN(C)CC4)cc3)ncn2)cc1
# output 100

---

# test target: CDK3 (human) (UniProt Q00526)
# Sequence (Q00526 whole entry, looked up): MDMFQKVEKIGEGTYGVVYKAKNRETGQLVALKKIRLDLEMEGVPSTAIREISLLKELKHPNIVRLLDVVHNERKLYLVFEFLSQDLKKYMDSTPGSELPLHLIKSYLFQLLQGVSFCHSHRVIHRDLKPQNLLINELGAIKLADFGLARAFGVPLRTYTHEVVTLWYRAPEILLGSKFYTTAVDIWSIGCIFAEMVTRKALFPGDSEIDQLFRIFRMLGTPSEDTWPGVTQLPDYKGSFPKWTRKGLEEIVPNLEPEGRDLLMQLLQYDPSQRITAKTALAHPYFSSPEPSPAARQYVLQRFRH
# test name: KINOMEscan competition binding
# condition info: compound 10.0 µM
endpoint label: kinase still bound, per cent of control
Record the result as number plus unit.

# input Requested read-out: kinase still bound, per cent of control. Entry: O=C1NC(=O)/C(=C/c2ccc3nccc(-c4ccncc4)c3c2)S1
# output 87%

# input Requested read-out: kinase still bound, per cent of control. Entry: COc1cc2ncnc(-n3nc(-c4ccccn4)nc3N)c2cc1OC
# output 82%

# input Requested read-out: kinase still bound, per cent of control. Entry: CS(=O)(=O)N1CCN(Cc2cc3nc(-c4cccc5[nH]ncc45)nc(N4CCOCC4)c3s2)CC1
# output 100%

# input Requested read-out: kinase still bound, per cent of control. Entry: C[C@@H](Oc1cc(-c2cnn(C3CCNCC3)c2)cnc1N)c1c(Cl)ccc(F)c1Cl
# output 100%

---

# test target: PAK2 (human) (UniProt Q13177)
# Sequence (Q13177 whole entry, looked up): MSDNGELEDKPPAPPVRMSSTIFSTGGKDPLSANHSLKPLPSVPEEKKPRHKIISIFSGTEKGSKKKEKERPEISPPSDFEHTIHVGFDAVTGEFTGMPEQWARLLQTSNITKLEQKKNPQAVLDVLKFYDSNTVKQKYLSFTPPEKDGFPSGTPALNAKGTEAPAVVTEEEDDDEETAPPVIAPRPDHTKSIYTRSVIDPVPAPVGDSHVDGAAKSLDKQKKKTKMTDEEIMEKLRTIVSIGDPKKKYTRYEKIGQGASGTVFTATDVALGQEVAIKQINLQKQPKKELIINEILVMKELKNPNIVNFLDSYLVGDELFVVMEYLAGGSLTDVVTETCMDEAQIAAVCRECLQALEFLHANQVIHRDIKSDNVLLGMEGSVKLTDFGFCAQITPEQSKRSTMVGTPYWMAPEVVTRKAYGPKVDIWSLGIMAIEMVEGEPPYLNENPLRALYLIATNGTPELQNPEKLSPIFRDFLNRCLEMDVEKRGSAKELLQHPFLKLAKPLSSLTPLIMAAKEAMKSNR
# test name: KINOMEscan competition binding
# condition info: compound 10.0 µM
Grouping key: kinase still bound, per cent of control. Bins: interval 1: < 60%; interval 2: ≥ 60% and < 90%; interval 3: ≥ 90%

# input Band for COc1cc(C(=O)N2CCC(N3CCN(C)CC3)CC2)ccc1Nc1ncc2c(n1)N(C)c1ccccc1C(=O)N2C ?
# output interval 2

# input Band for CNC(=O)c1ccc(Nc2cc(Nc3ccccc3S(=O)(=O)C(C)C)c3cc[nH]c3n2)nc1 ?
# output interval 3

# input Band for COc1ccc(N(C(=O)Oc2c(C)cccc2C)c2ccnc(Nc3ccc(N4CCN(C)CC4)cc3)n2)c(OC)c1 ?
# output interval 1

# input Band for C=CC(=O)Nc1cc(-n2c(=O)ccc3cnc4ccc(-c5cn[nH]c5)cc4c32)ccc1C ?
# output interval 2

# input Band for COCC(=O)NC/C=C/c1ccc2ncnc(Nc3ccc(Oc4ccc(C)nc4)c(C)c3)c2c1 ?
# output interval 2

# input Band for CNC(=O)c1cc(Oc2ccc(NC(=O)Nc3ccc(Cl)c(C(F)(F)F)c3)cc2)ccn1 ?
# output interval 2

# input Band for CN(C)C/C=C/C(=O)Nc1ccc(C(=O)Nc2cccc(Nc3nccc(-c4cccnc4)n3)c2)cc1 ?
# output interval 2

# input Band for COc1cc2ncn(-c3cc(OCc4ccccc4C(F)(F)F)c(C(N)=O)s3)c2cc1OC ?
# output interval 3

# input Band for C[C@@H](Oc1cc(-c2cnn(C3CCNCC3)c2)cnc1N)c1c(Cl)ccc(F)c1Cl ?
# output interval 3

# input Band for COc1cc2ncnc(-n3nc(-c4ccccn4)nc3N)c2cc1OC ?
# output interval 1

# input Band for CCN1CCN(C(=O)Cc2ccc(Nc3ncc(F)c(Nc4ccc(C(=O)Nc5ccccc5Cl)cc4)n3)cc2)CC1 ?
# output interval 1

# input Band for O=C1NC(=O)/C(=C/c2ccc3nccc(-c4ccncc4)c3c2)S1 ?
# output interval 1

---

# test target: CSNK1G1 (human) (UniProt Q9HCP0)
# Sequence (Q9HCP0 whole entry, looked up): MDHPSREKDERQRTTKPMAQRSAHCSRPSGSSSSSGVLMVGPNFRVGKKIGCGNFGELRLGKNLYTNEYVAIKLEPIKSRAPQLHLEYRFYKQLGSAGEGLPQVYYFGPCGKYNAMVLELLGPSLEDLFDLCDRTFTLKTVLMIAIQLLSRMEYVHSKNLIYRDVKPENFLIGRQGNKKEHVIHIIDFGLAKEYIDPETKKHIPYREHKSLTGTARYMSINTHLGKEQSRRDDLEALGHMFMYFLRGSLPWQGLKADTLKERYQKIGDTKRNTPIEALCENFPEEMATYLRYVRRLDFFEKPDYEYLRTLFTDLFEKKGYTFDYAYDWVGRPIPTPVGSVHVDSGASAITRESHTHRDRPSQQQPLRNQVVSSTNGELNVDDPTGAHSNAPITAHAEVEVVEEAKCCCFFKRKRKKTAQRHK
# test name: KINOMEscan competition binding
# condition info: compound 10.0 µM
Provide the recorded kinase still bound, per cent of control for the entries that follow.
Give just the numeric value; % need not be written.

# input Param readout= kinase still bound, per cent of control; system= CSNK1G1 (human) (UniProt Q9HCP0); entry= COCC(=O)NC/C=C/c1ccc2ncnc(Nc3ccc(Oc4ccc(C)nc4)c(C)c3)c2c1 ; returns value.
# output 100

# input Param readout= kinase still bound, per cent of control; system= CSNK1G1 (human) (UniProt Q9HCP0); entry= CS(=O)(=O)N1CCN(Cc2cc3nc(-c4cccc5[nH]ncc45)nc(N4CCOCC4)c3s2)CC1 ; returns value.
# output 100

# input Param readout= kinase still bound, per cent of control; system= CSNK1G1 (human) (UniProt Q9HCP0); entry= C[C@@H](Oc1cc(-c2cnn(C3CCNCC3)c2)cnc1N)c1c(Cl)ccc(F)c1Cl ; returns value.
# output 100

# input Param readout= kinase still bound, per cent of control; system= CSNK1G1 (human) (UniProt Q9HCP0); entry= C=CC(=O)Nc1cc(-n2c(=O)ccc3cnc4ccc(-c5cn[nH]c5)cc4c32)ccc1C ; returns value.
# output 86

---

Provide the recorded kinase still bound, per cent of control for the entries that follow.
# Test system: EGFR (human), P00533 [752-759 del]
# Sequence (P00533 whole entry, looked up, stated change not applied): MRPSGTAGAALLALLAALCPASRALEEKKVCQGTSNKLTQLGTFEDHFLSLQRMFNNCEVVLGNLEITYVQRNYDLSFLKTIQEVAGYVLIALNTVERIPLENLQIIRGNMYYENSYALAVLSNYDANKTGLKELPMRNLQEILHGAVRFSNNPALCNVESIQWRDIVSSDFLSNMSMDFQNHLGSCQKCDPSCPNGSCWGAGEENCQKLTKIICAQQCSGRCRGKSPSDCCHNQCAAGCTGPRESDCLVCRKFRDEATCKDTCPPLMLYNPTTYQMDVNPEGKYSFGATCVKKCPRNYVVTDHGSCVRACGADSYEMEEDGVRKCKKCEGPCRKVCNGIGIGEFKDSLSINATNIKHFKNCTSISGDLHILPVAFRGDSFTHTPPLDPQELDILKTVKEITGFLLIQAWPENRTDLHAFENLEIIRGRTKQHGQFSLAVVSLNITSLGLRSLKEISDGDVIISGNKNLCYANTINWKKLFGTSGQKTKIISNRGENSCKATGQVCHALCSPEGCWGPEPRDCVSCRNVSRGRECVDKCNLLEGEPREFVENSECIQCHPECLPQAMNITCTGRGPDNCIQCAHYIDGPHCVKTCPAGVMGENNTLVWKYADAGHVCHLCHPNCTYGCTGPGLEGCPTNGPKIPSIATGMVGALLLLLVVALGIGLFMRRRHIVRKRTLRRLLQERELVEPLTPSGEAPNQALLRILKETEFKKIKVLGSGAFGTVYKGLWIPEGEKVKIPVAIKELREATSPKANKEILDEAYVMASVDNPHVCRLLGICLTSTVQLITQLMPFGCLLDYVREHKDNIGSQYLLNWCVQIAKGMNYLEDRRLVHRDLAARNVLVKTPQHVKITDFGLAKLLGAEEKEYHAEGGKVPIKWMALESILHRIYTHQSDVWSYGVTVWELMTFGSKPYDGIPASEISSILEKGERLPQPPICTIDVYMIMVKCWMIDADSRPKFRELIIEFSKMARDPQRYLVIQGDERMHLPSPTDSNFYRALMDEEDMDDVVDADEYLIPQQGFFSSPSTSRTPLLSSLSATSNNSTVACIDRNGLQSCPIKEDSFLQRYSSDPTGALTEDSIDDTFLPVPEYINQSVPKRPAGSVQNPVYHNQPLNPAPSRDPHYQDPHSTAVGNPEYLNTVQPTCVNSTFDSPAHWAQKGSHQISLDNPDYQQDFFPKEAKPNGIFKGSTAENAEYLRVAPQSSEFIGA
# test name: KINOMEscan competition binding
# condition info: compound 10.0 µM
Give just the numeric value; % need not be written.

# input Requested read-out: kinase still bound, per cent of control. Entry: CCC(=O)N1CCN(c2ccc(-n3c(=O)ccc4cnc5ccc(-c6cnc7ccccc7c6)cc5c43)cc2C(F)(F)F)CC1
# output 84

# input Requested read-out: kinase still bound, per cent of control. Entry: Cc1ccc(C(=O)Nc2cccc(C(F)(F)F)c2)cc1Nc1cncc(C(N)=O)c1
# output 100

# input Requested read-out: kinase still bound, per cent of control. Entry: CNC(=O)c1ccc(Nc2cc(Nc3ccccc3S(=O)(=O)C(C)C)c3cc[nH]c3n2)nc1
# output 100

# input Requested read-out: kinase still bound, per cent of control. Entry: CN(C)C/C=C/C(=O)Nc1cccc(Nc2ncc3c(n2)N(C)c2ccccc2C(=O)N3C)c1
# output 74

# input Requested read-out: kinase still bound, per cent of control. Entry: COc1cc2ncn(-c3cc(OCc4ccccc4C(F)(F)F)c(C(N)=O)s3)c2cc1OC
# output 100

# input Requested read-out: kinase still bound, per cent of control. Entry: Nc1ccc(-c2ccc3ncc4ccc(=O)n(-c5cccc(C(F)(F)F)c5)c4c3c2)cn1
# output 70

# input Requested read-out: kinase still bound, per cent of control. Entry: C=CC(=O)Nc1cc(-n2c(=O)ccc3cnc4ccc(-c5cn[nH]c5)cc4c32)ccc1C
# output 23

# input Requested read-out: kinase still bound, per cent of control. Entry: C=CC(=O)Nc1ccc(CN(C(=O)Nc2c(Cl)c(OC)cc(OC)c2Cl)c2cc(Nc3ccc(N4CCN(C)CC4)cc3)ncn2)cc1
# output 2.3

---

# test target: SIK1 (human) (UniProt P57059)
# Sequence (P57059 whole entry, looked up): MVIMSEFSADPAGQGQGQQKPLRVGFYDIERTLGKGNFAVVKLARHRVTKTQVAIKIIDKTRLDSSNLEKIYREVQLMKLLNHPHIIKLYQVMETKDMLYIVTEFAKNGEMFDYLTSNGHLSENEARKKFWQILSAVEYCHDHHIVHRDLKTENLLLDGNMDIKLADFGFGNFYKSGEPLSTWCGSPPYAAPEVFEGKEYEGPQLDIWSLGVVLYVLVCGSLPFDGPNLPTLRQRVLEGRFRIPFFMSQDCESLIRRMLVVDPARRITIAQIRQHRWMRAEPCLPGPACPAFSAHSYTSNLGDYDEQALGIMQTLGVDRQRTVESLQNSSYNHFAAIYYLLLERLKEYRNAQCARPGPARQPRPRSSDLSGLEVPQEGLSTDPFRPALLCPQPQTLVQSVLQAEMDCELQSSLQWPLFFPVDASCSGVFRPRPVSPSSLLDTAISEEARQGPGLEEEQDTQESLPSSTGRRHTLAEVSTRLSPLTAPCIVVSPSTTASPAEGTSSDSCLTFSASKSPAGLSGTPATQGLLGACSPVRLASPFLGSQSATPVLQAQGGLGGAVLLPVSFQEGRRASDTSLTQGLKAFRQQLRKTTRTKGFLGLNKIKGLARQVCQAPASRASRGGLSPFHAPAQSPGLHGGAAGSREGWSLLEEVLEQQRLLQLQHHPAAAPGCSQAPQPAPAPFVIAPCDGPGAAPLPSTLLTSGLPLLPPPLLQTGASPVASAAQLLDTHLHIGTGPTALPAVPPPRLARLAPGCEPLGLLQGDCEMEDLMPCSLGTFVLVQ
# test name: KINOMEscan competition binding
# condition info: compound 10.0 µM
endpoint label: kinase still bound, per cent of control (%)
Give just the numeric value; % need not be written.

# input Requested read-out: kinase still bound, per cent of control. Entry: CNC(=O)c1cc(Oc2ccc(NC(=O)Nc3ccc(Cl)c(C(F)(F)F)c3)cc2)ccn1
# output 100

# input Requested read-out: kinase still bound, per cent of control. Entry: COc1cc(C(=O)N2CCC(N3CCN(C)CC3)CC2)ccc1Nc1ncc2c(n1)N(C)c1ccccc1C(=O)N2C
# output 77

# input Requested read-out: kinase still bound, per cent of control. Entry: O=C(Nc1cccc(Nc2ncc(Br)c(NCCc3cnc[nH]3)n2)c1)N1CCCC1
# output 0.35

# input Requested read-out: kinase still bound, per cent of control. Entry: O=c1cc(N2CCOCC2)oc2c(-c3cccc4c3sc3ccccc34)cccc12
# output 100

# input Requested read-out: kinase still bound, per cent of control. Entry: N#CCNC(=O)c1ccc(-c2ccnc(Nc3ccc(N4CCOCC4)cc3)n2)cc1
# output 62

# input Requested read-out: kinase still bound, per cent of control. Entry: CCN(CC)CCCCNc1ncc2c(n1)N(C)C(=O)N(c1c(Cl)c(OC)cc(OC)c1Cl)C2
# output 100

# input Requested read-out: kinase still bound, per cent of control. Entry: Cc1n[nH]c2ccc(-c3cncc(OC[C@@H](N)Cc4c[nH]c5ccccc45)c3)cc12
# output 100

# input Requested read-out: kinase still bound, per cent of control. Entry: COc1cc2ncn(-c3cc(OCc4ccccc4C(F)(F)F)c(C(N)=O)s3)c2cc1OC
# output 40

# input Requested read-out: kinase still bound, per cent of control. Entry: CCN1CCN(C(=O)Cc2ccc(Nc3ncc(F)c(Nc4ccc(C(=O)Nc5ccccc5Cl)cc4)n3)cc2)CC1
# output 28
